# credit: PubChem BioAssay (NCI)

test: NCI Yeast Anticancer Drug Screen. Data for the wt2 strain (AID 169);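 note: 0% = growth of vehicle-treated yeast cultures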; details: S. cerevisiae wt2 strain growth inhibition; at 33.0 µM
This is part of a sample that, as a whole, favours compounds with a hit. Of some 79,000 tested, about 15% had one in any assay. Calls of active or inactive are those of the source. Cut-off read from the data, not from the text of the source: active = growth inhibition above about 70%; inactive = the rest.
Choose one outcome from this list and give only that: active, inactive

Please review the entries below; each comes with its answer.
{"columns": ["COMPOUND", "CLASSIFICATION"],
 "data": [
  ["O=C(c1c(F)c(F)c(F)c(F)c1F)c1c(F)c(F)c(F)c(F)c1F", "active"],
  ["O=C1C=CC(=O)N1c1ccc(Br)cc1Cl", "active"],
  ["O=S(=O)(CCC[C@H]1[C@@H](CCOCc2ccccc2)C2CCCN1O2)c1ccccc1 (stereo partly drawn)", "inactive"]
]}

Prompt: Tell me the assay call for CCCCCCCCCCCCCCCCOCC(Cl)COP(=O)(O)OP(=O)(O)OCC1OC(n2cnc3c(N)ncnc32)C(O)C1O (stereo not drawn) please.
Completion: inactive

Prompt: // param item: "Cc1ccc(Cl)c2c(=O)c3ccccc3[nH]c12" ; yields the recorded call
Completion: inactive

Prompt: Recorded call for CC1(C)CC(=O)C(C(CC(c2ccccc2)c2cc3c(cc2O)OCO3)C2=C(O)CC(C)(C)CC2=O)=C(O)C1 (stereo not drawn) ?
Completion: active

Prompt: For "O=S(=O)(O)CC[S][Sn]([S]CCS(=O)(=O)O)([c]1ccccc1)[c]1ccccc1" , which call appears in the assay record?
Completion: active

Prompt: Which outcome did this test record for the compound "CN(Cc1cccc2ccccc12)Cc1cccc2ccccc12" ?
Completion: inactive

---

assay: NCI Yeast Anticancer Drug Screen. Data for the mlh1 strain (AID 171);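 note: 0% = growth of vehicle-treated control cultures of the same strain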; conditions: S. cerevisiae mlh1 strain growth inhibition; at 1.2 µM; active compounds read high
About 79,000 compounds went through this panel and 15% of them were active in at least one assay; those are over-represented in the sample as a whole. Activity calls are given as the source filed them. Rule as the data show it: active = growth inhibition above about 70%; inactive = the rest.
EXPERIMENTAL READOUT: growth inhibition

Worked set:
{"columns": ["MOLECULE", "growth inhibition"],
 "data": [
  ["c1cc(Nc2ccc3c(c2)OCO3)c2cc(C3CCCCC3)ccc2n1", "-1% (inactive)"],
  ["Cc1ccc(S(=O)(=O)N/N=C/c2c(O)ccc3ccccc23)cc1", "-30% (inactive)"],
  ["CCSc1c2ccccc2c(-c2nc(F)nc(F)n2)n1CCc1ccccc1", "-41% (inactive)"],
  ["CCCC(=O)OC(OC(=O)CCC)c1ccc([N+](=O)[O-])o1", "-5% (inactive)"],
  ["CN1CCN(c2ccc3nc(-c4ccc5nc(-c6ccc(O)cc6)[nH]c5c4)[nH]c3c2)CC1", "-10% (inactive)"]
]}

For every listed record, write down its growth inhibition.
1. O=C(Cc1ccccc1F)NC1=C(Cl)C(=O)c2ccccc2C1=O
2. c1cc2ccc3cc4ncccc4c4ccc(c1)c2c34

Completion:
1. -2% (inactive)
2. -2% (inactive)

Look at each molecule and report its growth inhibition.
1. O=Cn1c2ccccc2c2ccccc21
2. COc1ccc2c(Cc3c4ccccc4cc4ccccc34)cncc2c1O

Completion:
1. -18% (inactive)
2. 4% (inactive)

For each listed entry, give its growth inhibition.
1. CC(=O)O/N=C/c1c2ccccc2cc2ccccc12
2. CNC(=O)OCc1c(COC(=O)NC)c(C)n(-c2ccc(Cl)c(Cl)c2)c1C
3. C[Si](C)(C)Cc1ccccc1C(=O)O
4. CCOC(=O)c1sc2[n+](c1C)C(=O)/C(=C/c1cc(OC)c(OC)c(OC)c1)S2

Completion:
1: 1% (inactive); 2: -26% (inactive); 3: 3% (inactive); 4: 9% (inactive)

Hi, could you look up growth inhibition for each item in my list?
1. Cc1ccc(N(C=O)c2c([N+](=O)[O-])cc([N+](=O)[O-])c3c2=[N+]([O-])CN=3)cc1
2. Cn1c(COc2ccc(/C=N/NC(=O)CCC(=O)N/N=C/c3ccc(OCc4c[n+]5ccccc5n4C)cc3)cc2)c[n+]2ccccc12
3. CCCCCCCCCCCCOC1C(COCCN2CCCC2)OC2OC(C)(C)OC21 (centres undefined)
4. CN(C)CCNC(=O)c1cccc2nc3c(ccc4ccccc43)nc12
5. CN(C)N=Nc1ccc(NC=O)cc1
6. O=C(Cc1ccccc1)c1ccc(O)cc1
7. O=S(=O)(Oc1c(Cl)cc(Cl)cc1Cl)c1ccccc1

Completion:
1: -1% (inactive); 2: 1% (inactive); 3: 25% (inactive); 4: -1% (inactive); 5: 2% (inactive); 6: -13% (inactive); 7: -1% (inactive)

Count: 5. Required value per item: growth inhibition.
1. CN(Cc1cccc2ccccc12)Cc1cccc2ccccc12
2. Nc1nc(Nc2ccccc2)nc(Nc2ccccc2)n1
3. COC1=C(N=[N+]=[N-])C(=O)c2ncccc2C1=O
4. O=C1c2ccc(O)cc2C(=O)c2c(O)ccc(O)c21
5. Cc1ccc(P(c2ccc(C)cc2)c2ccc(C)cc2)cc1

Completion:
1: 4% (inactive); 2: -6% (inactive); 3: 10% (inactive); 4: 4% (inactive); 5: -30% (inactive)

Need growth inhibition for each of these molecules.
1. O=C(c1c(F)c(F)c(F)c(F)c1F)c1c(F)c(F)c(F)c(F)c1F
2. CCOc1nc(OCC)nc(-c2cccn2-c2ccccc2)n1
3. N=c1oc2ccccc2cc1-c1nc2ccccc2[nH]1
4. CCCCOc1ccc(Nc2c3ccccc3nc3ccccc23)cc1

Completion:
16% (inactive)
-25% (inactive)
0% (inactive)
-39% (inactive)

// for each molecule below, give its growth inhibition
1. CC(C)c1ccc(C2NC(=S)NC3=C2c2ccccc2C3=O)cc1 (centres undefined)
2. CCC(C)/C(C)=N/NC(N)=O (centres undefined)
3. Cc1cc(NCCCN(C)C)c2ccc3c(ccc4c(NCCCN(C)C)cc(C)nc43)c2n1
4. CN(C)N1C(=O)SCC(c2ccccc2)(c2ccccc2)C1=O
5. Cc1cnccc1N=Nc1ccc(N(C)C)cc1
6. O=C1c2ccccc2C(=O)C1C(c1ccc(F)cc1)C1C(=O)c2ccccc2C1=O
7. CN(NC(=O)/C(=C/C=C/c1ccccc1)NC(=O)c1ccccc1)C1=C(Cl)C(=O)[N+](c2ccccc2)=CC1

Completion:
1. 10% (inactive)
2. 1% (inactive)
3. 15% (inactive)
4. -1% (inactive)
5. -1% (inactive)
6. -17% (inactive)
7. 2% (inactive)

Required: growth inhibition, one value per molecule below.
1. S=C1NC2=C(CSC/C2=C\c2ccc(Cl)cc2)C(c2ccc(Cl)cc2)N1 (centres undefined)
2. CC1(C)CC(=O)C(C(CC(c2ccccc2)c2cc3c(cc2O)OCO3)C2=C(O)CC(C)(C)CC2=O)=C(O)C1 (centres undefined)
3. Cc1nc2ccc(NCCN(C)C)c3c(=O)c4ccccc4n1c23
4. c1ccc(N/N=C2\CC(c3ccccc3)Oc3ccccc32)cc1 (centres undefined)
5. CCC1SC(=S)N(c2ccc(Cl)cc2)C1=O (centres undefined)
6. CCOc1ccc2ccc3cccnc3c2n1
7. O=C(O)/C=C\C(=O)NNc1ccc(Br)cc1

Completion:
1. 3% (inactive)
2. -2% (inactive)
3. 27% (inactive)
4. 1% (inactive)
5. -14% (inactive)
6. -3% (inactive)
7. -2% (inactive)

Prompt: Please report growth inhibition for the following molecule: "CC[C@]1(O)C[C@H]2CN(CCc3c([nH]c4ccccc34)[C@@](C(=O)OC)(c3cc4c(cc3OC)N(C)[C@H]3[C@@](O)(C(=O)OC)[C@H](OC(C)=O)[C@]5(CC)C=CCN6CC[C@]43[C@@H]65)C2)C1"
Completion: 0% (inactive)

---

Would you kindly list growth inhibition for each of these compounds?
test: NCI Yeast Anticancer Drug Screen. Data for the sgs1 mgt1 strain (AID 161);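 note: 0% = growth of cultures given vehicle only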; details: S. cerevisiae sgs1 mgt1 strain, at 5.0 µM (retest, dose inferred, filed as 0.5), active compounds read high
About 79,000 compounds went through this panel and 15% of them were active in at least one assay; those are over-represented in the sample as a whole. Starred links: 1 amine or outer side, 2 acyl side, 3 side chain; linkers in the order of their positions; H or OH if unused. Positions of bridges follow the written chain, without caps; N, C: chain ends. Non-standard residues stand in square brackets, D forms with d. Residues, ends and D or L forms follow the SMILES beside them. Chains are numbered I, II in the order given. Actinocin(9to1) = Cc1c2oc3c(C)ccc(C(=O)[*:1])c3nc-2c(C(=O)[*:2])c(N)c1=O; aThr = C[C@H](O)[C@H](N)C(=O)O; NMeV = CN[C@H](C(=O)O)C(C)C; Sar = CNCC(=O)O
Give bare numbers, in %.

Answered cases to consult:
{"columns": ["COMPOUND", "EXPERIMENTAL READOUT", "SCALE UNIT", "OBSERVED MEASUREMENT"],
 "data": [
  ["CC(C)(C)[Si](C)(C)OCC1OC(n2cnc3c(N)ncnc32)C2OC(=S)OC12 (stereo not given)", "growth inhibition", "%", 5],
  ["CNC(=O)OCc1c(COC(=O)NC)c(C)n(-c2ccc(Cl)c(Cl)c2)c1C", "growth inhibition", "%", 5]
]}

Give growth inhibition for each of the items listed below.
1. O=C(O)/C=C\C(=O)NNc1ccc(Br)cc1
2. OC(c1ccc(Br)cc1)(c1cccs1)C1CC1 (stereo not given)

Completion:
31
-7

State the recorded growth inhibition for every item in the following list.
1. CCOC(=O)C(NC(=O)c1ccccc1)[CH](c1ccccc1)[Sn]([c]1ccccc1)([c]1ccccc1)[c]1ccccc1 (stereo not given)
2. COC1=C(N=[N+]=[N-])C(=O)c2ncccc2C1=O
3. O=Cc1ccccc1B(O)O
4. O=C1c2ccccc2C(=O)C1C(c1ccc(F)cc1)C1C(=O)c2ccccc2C1=O
5. CC1(C)CC(=O)C(C(CC(c2ccccc2)c2cc3c(cc2O)OCO3)C2=C(O)CC(C)(C)CC2=O)=C(O)C1 (stereo not given)
6. Nc1nc(Nc2ccccc2)nc(Nc2ccccc2)n1
7. Cc1c2oc3c(C)ccc(C(=O)N[C@@H]4C(=O)N[C@H](C(C)C)C(=O)N5CCC[C@H]5C(=O)N(C)CC(=O)N(C)[C@@H](C(C)C)C(=O)O[C@H]4C)c3nc-2c(C(=O)N[C@@H]2C(=O)N[C@H](C(C)C)C(=O)N3CCC[C@H]3C(=O)N(C)CC(=O)N(C)[C@@H](C(C)C)C(=O)O[C@H]2C)c(N)c1=O (I: [aThr][dV]P[Sar][NMeV] / II: [aThr][dV]P[Sar][NMeV]; ester I:1-I:C, II:1-II:C; linker I:N-II:N via Actinocin(9to1))

Completion:
[-4, 42, -25, 2, 0, 3, 24]
